Test system: U2OS
Procedure summary: Multiplex assay against U2OS
Assay type: toxicity, cell-based
Reported conditions: human, 48 h, 10 µM, compound concentration 10 uM, replicate 1
Observable: Population Apoptotic (%)
Field: numeric (%). Do not append units.

Field Population Apoptotic (%) (system: U2OS) for entry O=C(CCCc1ccccc1)Nc1nc2ccccc2c(=O)s1 = 91

Field Population Apoptotic (%) (system: U2OS) for entry CN1CCN(c2cc(-c3ccccc3)nc(N)n2)CC1 = 100

Field Population Apoptotic (%) (system: U2OS) for entry N#Cc1c(Oc2cccc(OS(=O)(=O)CCCC(F)(F)F)c2)cccc1C(F)(F)F = 91

Field Population Apoptotic (%) (system: U2OS) for entry C[C@H](N)COC(=O)[C@@H](CCCCN)NC(=O)Cc1c(-c2ccc3ccccc3c2)[nH]c2c1ccc1ccccc12 = 90

Field Population Apoptotic (%) (system: U2OS) for entry COc1cccc2c1c(NS(=O)(=O)c1ccc(Cl)s1)nn2Cc1cccc(CNC(=O)C(C)(C)O)c1 = 93

Field Population Apoptotic (%) (system: U2OS) for entry O=C1[C@H](Cc2ccc(O)cc2)N2C(=O)CCN(C(=O)NCc3ccccc3)[C@H]2CN1Cc1cccc2ccccc12 = 82

Field Population Apoptotic (%) (system: U2OS) for entry CCc1cc2cc(NS(=O)(=O)c3ccc(C#N)cc3)ccc2n(CC)c1=O = 88

Field Population Apoptotic (%) (system: U2OS) for entry CCCCC(=O)N(Cc1ccc(-c2ccccc2-c2nnn[nH]2)cc1)[C@H](C(=O)O)C(C)C = 83

Field Population Apoptotic (%) (system: U2OS) for entry N#Cc1cc(F)cc(-c2nc(-c3ccc(F)cn3)no2)c1 = 85

Field Population Apoptotic (%) (system: U2OS) for entry CC(C)c1noc(N2CCC(COc3ccc(-c4ccc(S(C)(=O)=O)cc4)nc3)CC2)n1 [GSK-1292263] = 87

Field Population Apoptotic (%) (system: U2OS) for entry Cc1onc(-c2ccccc2Cl)c1C(=O)N(C)c1ccc(Cl)cc1 = 69

Field Population Apoptotic (%) (system: U2OS) for entry CC(=O)Nc1cccc2c1c(Sc1ccc(Cl)cc1)c(C)n2CC(=O)O [AZD1981] = 100

Field Population Apoptotic (%) (system: U2OS) for entry CCCOc1ccc2[nH]cc(C3=CCNCC3)c2n1.Cl = 100

Field Population Apoptotic (%) (system: U2OS) for entry Cc1cccc(NC(=O)CN2CCC(c3ccccn3)CC2)c1.Cl.Cl = 96

Field Population Apoptotic (%) (system: U2OS) for entry CC(C)COc1ccc(CNC(=O)N(Cc2ccc(F)cc2)C2CCN(C)CC2)cc1 [PIMAVANSERIN] = 98

Field Population Apoptotic (%) (system: U2OS) for entry CCCCC1=NC2(CCCC2)C(=O)N1Cc1ccc(-c2ccccc2-c2nnn[nH]2)cc1 [IRBESARTAN] = 89
